# TARGET SYSTEM: CYP2C8 (Homo sapiens, UniProt P10632)
# Sequence (P10632 1-490): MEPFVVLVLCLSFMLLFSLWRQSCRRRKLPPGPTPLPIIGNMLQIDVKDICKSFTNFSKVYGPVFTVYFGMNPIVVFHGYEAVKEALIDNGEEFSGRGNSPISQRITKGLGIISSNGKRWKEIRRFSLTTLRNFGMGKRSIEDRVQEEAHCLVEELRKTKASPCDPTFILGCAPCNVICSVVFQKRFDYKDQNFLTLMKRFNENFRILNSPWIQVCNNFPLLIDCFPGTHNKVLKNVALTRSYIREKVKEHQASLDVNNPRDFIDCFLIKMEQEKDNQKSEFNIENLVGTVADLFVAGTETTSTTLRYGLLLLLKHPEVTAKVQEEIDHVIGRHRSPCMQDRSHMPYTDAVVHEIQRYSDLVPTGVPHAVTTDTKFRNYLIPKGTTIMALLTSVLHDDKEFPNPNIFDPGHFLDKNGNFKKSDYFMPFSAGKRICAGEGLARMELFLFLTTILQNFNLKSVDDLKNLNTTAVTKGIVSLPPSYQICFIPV
# PROTOCOL NOTES: Direct CYP inhibition assay using pooled HLM
# ASSAY CONDITIONS: microsomes
REPORTED ENDPOINT: pIC50
Notebook: values listed as pIC50 are -log10 of the concentration (mol/L).

# input Return reported pIC50; argument: COc1ccc2c(c1O)CN1CCc3cc4c(cc3C1C2)OCO4 (stereo not shown) [TRB, Tetrahydroberberrubine·acetate]
# output 5.02

###

# PROTOCOL NOTES: Metabolic stability and metabolite formation of BBR in pooled HLM
# ASSAY CONDITIONS: BBR 1 µM in pooled HLM with NADPH-generating system; 7.5 min; mean ± SD
# note: boundary value 20 nM maps to No; Concentration in incubation mixture (elimination of BBR and formation of its metabolites) below it maps to Yes

Here's what some known entries look like.
| SMILES CODE | CATEGORY LABEL |
| --- | --- |
| COc1ccc2cc3[n+](cc2c1OC)CCc1cc(O)c(O)cc1-3 | No |
| COc1c(O)ccc2cc3[n+](cc12)CCc1cc2c(cc1-3)OCO2 | No |
| COc1ccc2cc3[n+](cc2c1O)CCc1cc2c(cc1-3)OCO2 | Yes |
| COc1cc2c(cc1O)CC[n+]1cc3c(OC)c(OC)ccc3cc1-2 | Yes |

Consider the additional molecule presented here.
# input Regarding `COc1ccc2cc3[n+](cc2c1OC)CCc1cc2c(cc1-3)OCO2` , kindly confirm whether its Concentration in incubation mixture (elimination of BBR and formation of its metabolites) is beneath 20 nM.
# output No

###

# TARGET SYSTEM: CYP3A4 (Homo sapiens, UniProt P08684)
# Sequence (P08684 whole entry): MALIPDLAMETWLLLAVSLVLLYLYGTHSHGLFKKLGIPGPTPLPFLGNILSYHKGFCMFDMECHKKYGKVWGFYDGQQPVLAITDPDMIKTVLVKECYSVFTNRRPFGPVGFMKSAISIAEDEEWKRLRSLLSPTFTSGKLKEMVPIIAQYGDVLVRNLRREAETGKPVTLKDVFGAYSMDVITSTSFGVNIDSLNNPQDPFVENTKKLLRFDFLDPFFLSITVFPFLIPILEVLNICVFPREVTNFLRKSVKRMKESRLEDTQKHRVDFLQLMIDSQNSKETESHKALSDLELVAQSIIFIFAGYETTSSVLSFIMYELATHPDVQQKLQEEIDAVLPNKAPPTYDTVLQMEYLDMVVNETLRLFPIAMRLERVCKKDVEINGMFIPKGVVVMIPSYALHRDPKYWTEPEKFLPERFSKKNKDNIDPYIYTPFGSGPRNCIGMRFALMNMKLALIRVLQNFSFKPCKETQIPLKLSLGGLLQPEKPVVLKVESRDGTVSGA
# PROTOCOL NOTES: Direct CYP inhibition assay using pooled HLM
# ASSAY CONDITIONS: read-out: IC50 CYP3A4 (TST), direct inhibition, substrate TST, 95% confidence intervals in parentheses
REPORTED ENDPOINT: pIC50
pIC50 here: minus log base 10 of the concentration, concentration in moles per litre.

# input Endpoint output: pIC50 of `COc1ccc2cc3[n+](cc2c1OC)CCc1cc(O)c(O)cc1-3` . Value?
# output 5.14

###

Below, each entry is listed alongside its reported IC50.
# TARGET SYSTEM: UniProt P05177
# Sequence (P05177 whole entry): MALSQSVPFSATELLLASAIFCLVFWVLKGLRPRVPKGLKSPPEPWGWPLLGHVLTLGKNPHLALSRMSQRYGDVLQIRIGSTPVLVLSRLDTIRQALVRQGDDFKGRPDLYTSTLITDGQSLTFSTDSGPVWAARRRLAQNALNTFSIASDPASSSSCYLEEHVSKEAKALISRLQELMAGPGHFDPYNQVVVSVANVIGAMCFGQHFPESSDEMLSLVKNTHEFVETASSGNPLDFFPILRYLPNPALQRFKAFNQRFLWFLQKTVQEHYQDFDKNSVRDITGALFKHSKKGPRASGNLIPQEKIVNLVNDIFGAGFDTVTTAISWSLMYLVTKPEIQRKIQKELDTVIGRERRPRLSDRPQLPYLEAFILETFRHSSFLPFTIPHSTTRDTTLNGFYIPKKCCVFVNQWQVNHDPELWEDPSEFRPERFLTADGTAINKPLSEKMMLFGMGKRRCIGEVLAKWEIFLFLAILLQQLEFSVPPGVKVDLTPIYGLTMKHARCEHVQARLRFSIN
# PROTOCOL NOTES: Direct CYP inhibition assay using pooled HLM

| COMPOUND | VAL |
| --- | --- |
| COc1ccc2cc3[n+](cc2c1O)CCc1cc2c(cc1-3)OCO2 [BRB, berberrubine] | 51 µM |
| COc1cc2c(cc1O)CC[n+]1cc3c(OC)c(OC)ccc3cc1-2 [JTZ, jatrorrhizine] | > 100 µM |

# input Name the recorded IC50 for COc1c(O)ccc2cc3[n+](cc12)CCc1cc2c(cc1-3)OCO2 [TFD, thalifendine] .
# output > 100 µM

###

# Test system: CYP enzymes
# PROTOCOL NOTES: Direct CYP inhibition assay using pooled HLM, all CYP enzymes tested
# Type: in vitro ADME, human
# ASSAY CONDITIONS: read-out: IC50 values, range over all CYP enzymes tested (pan-CYP inhibitory activities)
REPORTED ENDPOINT: IC50

# input Write down the reported IC50 of COc1ccc2c(c1O)CN1CCc3cc4c(cc3C1C2)OCO4 (stereo not shown) [TRB, Tetrahydroberberrubine·acetate] , test system: CYP enzymes.
# output 2.7 to 9.6 µM

###

# TARGET SYSTEM: UniProt P11509
# Sequence (P11509 1-494): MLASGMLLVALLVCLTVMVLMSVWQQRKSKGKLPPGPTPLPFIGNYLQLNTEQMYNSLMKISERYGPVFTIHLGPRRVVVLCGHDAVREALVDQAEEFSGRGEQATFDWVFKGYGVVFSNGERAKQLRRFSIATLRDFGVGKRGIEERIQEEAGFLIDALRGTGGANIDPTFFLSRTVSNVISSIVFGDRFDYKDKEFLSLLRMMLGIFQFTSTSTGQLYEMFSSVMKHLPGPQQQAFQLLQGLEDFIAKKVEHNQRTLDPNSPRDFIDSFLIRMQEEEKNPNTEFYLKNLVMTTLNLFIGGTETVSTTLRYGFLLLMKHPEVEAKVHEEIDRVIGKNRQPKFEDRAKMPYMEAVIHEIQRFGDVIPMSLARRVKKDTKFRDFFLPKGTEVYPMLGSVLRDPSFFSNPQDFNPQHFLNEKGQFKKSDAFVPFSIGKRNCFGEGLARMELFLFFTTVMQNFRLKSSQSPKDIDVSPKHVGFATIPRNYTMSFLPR
# PROTOCOL NOTES: Direct CYP inhibition assay using pooled HLM
# ASSAY CONDITIONS: read-out: IC50 CYP2A6; pooled HLM; direct inhibition; 95% confidence intervals in parentheses
pIC50: −log10 of the molar value.
REPORTED ENDPOINT: pIC50

# input Suppose we examine the compound `COc1ccc2cc3[n+](cc2c1OC)CCc1cc(O)c(O)cc1-3` ; what pIC50 value has been reported?
# output < 4.00

###

# TARGET SYSTEM: CYP2C19 (Homo sapiens)
# Sequence (P33261 whole entry): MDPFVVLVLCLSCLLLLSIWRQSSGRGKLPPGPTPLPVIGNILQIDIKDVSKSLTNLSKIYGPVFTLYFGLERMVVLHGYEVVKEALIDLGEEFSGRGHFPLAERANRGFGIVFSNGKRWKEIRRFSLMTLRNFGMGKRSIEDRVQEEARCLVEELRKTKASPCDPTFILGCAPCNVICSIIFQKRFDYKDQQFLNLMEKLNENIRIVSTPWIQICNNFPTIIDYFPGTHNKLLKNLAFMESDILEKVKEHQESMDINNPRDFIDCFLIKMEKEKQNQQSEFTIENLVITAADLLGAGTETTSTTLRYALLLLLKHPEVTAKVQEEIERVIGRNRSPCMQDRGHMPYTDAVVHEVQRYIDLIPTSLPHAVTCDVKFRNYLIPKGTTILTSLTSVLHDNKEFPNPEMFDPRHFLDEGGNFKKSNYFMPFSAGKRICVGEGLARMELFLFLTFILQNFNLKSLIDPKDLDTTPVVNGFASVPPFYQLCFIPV
# PROTOCOL NOTES: Direct CYP inhibition assay using pooled HLM
REPORTED ENDPOINT: IC50

| SMILES CODE | TARGET SYSTEM | IC50 |
| --- | --- | --- |
| COc1cc2c(cc1O)CC[n+]1cc3c(OC)c(OC)ccc3cc1-2 | CYP2C19 (Homo sapiens) | > 100 µM |
| COc1ccc2cc3[n+](cc2c1O)CCc1cc2c(cc1-3)OCO2 | CYP2C19 (Homo sapiens) | 49 µM |

Please look at the following molecule next.
# input What measured IC50 goes with `COc1c(O)ccc2cc3[n+](cc12)CCc1cc2c(cc1-3)OCO2` ?
# output > 100 µM

###

# PROTOCOL NOTES: Metabolic stability and metabolite formation of BBR in pooled HLM
# ASSAY CONDITIONS: human, pooled human liver microsomes
REPORTED ENDPOINT: half-life at 1 µM (min)
Report as a plain number; the unit min is understood.

# input Need half-life at 1 µM, item `COc1ccc2cc3[n+](cc2c1OC)CCc1cc2c(cc1-3)OCO2`
# output 35.4

###

Concentration in incubation mixture (elimination of BBR and formation of its metabolites): recorded values
# PROTOCOL NOTES: Metabolic stability and metabolite formation of BBR in pooled HLM
# ASSAY CONDITIONS: BBR 1 µM in pooled HLM with NADPH-generating system; 30 min; mean ± SD
Report as a plain number; the unit nM is understood.

// solved cases for Concentration in incubation mixture (elimination of BBR and formation of its metabolites) follow
| MOLECULE | VAL |
| --- | --- |
| COc1cc2c(cc1O)CC[n+]1cc3c(OC)c(OC)ccc3cc1-2 [JTZ, jatrorrhizine] | 10.5 |
| COc1c(O)ccc2cc3[n+](cc12)CCc1cc2c(cc1-3)OCO2 [TFD, thalifendine] | 44.3 |

# input Requested field: Concentration in incubation mixture (elimination of BBR and formation of its metabolites). Item: COc1ccc2cc3[n+](cc2c1OC)CCc1cc2c(cc1-3)OCO2 [BBR, berberine]
# output 539

# input Which measured Concentration in incubation mixture (elimination of BBR and formation of its metabolites) value corresponds to COc1ccc2cc3[n+](cc2c1OC)CCc1cc(O)c(O)cc1-3 [DMB, demethyleneberberine] ?
# output 52.6

# input Could you share which Concentration in incubation mixture (elimination of BBR and formation of its metabolites) value was measured for COc1ccc2cc3[n+](cc2c1O)CCc1cc2c(cc1-3)OCO2 [BRB, berberrubine] ?
# output 6.0

###

# PROTOCOL NOTES: Metabolic stability and metabolite formation of BBR in pooled HLM
# ASSAY CONDITIONS: BBR 1 µM in pooled HLM with NADPH-generating system; 15 min; mean ± SD
REPORTED ENDPOINT: Concentration in incubation mixture (elimination of BBR and formation of its metabolites) (nM)
Respond numerically; units are nM and should not be typed.

| SMILES CODE | READOUT UNITS | VAL |
| --- | --- | --- |
| COc1ccc2cc3[n+](cc2c1OC)CCc1cc(O)c(O)cc1-3 | nM | 38.1 |
| COc1cc2c(cc1O)CC[n+]1cc3c(OC)c(OC)ccc3cc1-2 | nM | 10.9 |

# input Param item = `COc1ccc2cc3[n+](cc2c1O)CCc1cc2c(cc1-3)OCO2` ; retrieve measured Concentration in incubation mixture (elimination of BBR and formation of its metabolites).
# output 5.8

# input // lookup Concentration in incubation mixture (elimination of BBR and formation of its metabolites) for `COc1ccc2cc3[n+](cc2c1OC)CCc1cc2c(cc1-3)OCO2`
# output 713

# input # query: Concentration in incubation mixture (elimination of BBR and formation of its metabolites) of entry `COc1c(O)ccc2cc3[n+](cc12)CCc1cc2c(cc1-3)OCO2`
# output 33.3
